experiment: Binding of substrate to DhaA mutants
recorded_metric: binding to carboxytetramethylrhodamine-C10H21NO2—Cl

Please review the entries below; each comes with its answer.
DhaA.D106C: DhaA mutant, Asp106 replaced with Cys (protein, UniProt P0A3G2 1-293, looked up, variant D106C) Haloalkane dehalogenase: MSEIGTGFPFDPHYVEVLGERMHYVDVGPRDGTPVLFLHGNPTSSYLWRNIIPHVAPSHRCIAPDLIGMGKSDKPDLDYFFDDHVRYLDAFIEALGLEEVVLVIHCWGSALGFHWAKRNPERVKGIACMEFIRPIPTWDEWPEFARETFQAFRTADVGRELIIDQNAFIEGALPKCVVRPLTEVEMDHYREPFLKPVDREPLWRFPNELPIAGEPANIVALVEAYMNWLHQSPVPKLLFWGTPGVLIPPAEAARLAESLPNCKTVDIGPGLHYLQEDNPDLIGSEIARWLPAL : bound
DhaA.WT: wild type Rhodococcus rhodochrous dehalogenase (DhaA), SEQ ID NO:1 (protein, listed as Rhodococcus rhodochrous) MSEIGTGFPFDPHYVEVLGERMHYVDVGPRDGTPVLFLHGNPTSSYLWRNIIPHVAPSHRCIAPDLIGMGKSDKPDLDYFFDDHVRYLDAFIEALGLEEVVLVIHDWGSALGFHWAKRNPERVKGIACMEFIRPIPTWDEWPEFARETFQAFRTADVGRELIIDQNAFIEGALPKCVVRPLTEVEMDHYREPFLKPVDREPLWRFPNELPIAGEPANIVALVEAYMNWLHQSPVPKLLFWGTPGVLIPPAEAARLAESLPNCKTVDIGPGLHYLQEDNPDLIGSEIARWLPAL : not
DhaA.D106C:H272F: DhaA double mutant D106C and H272F (protein, UniProt P0A3G2 1-293, looked up, variant D106C H272F) Haloalkane dehalogenase: MSEIGTGFPFDPHYVEVLGERMHYVDVGPRDGTPVLFLHGNPTSSYLWRNIIPHVAPSHRCIAPDLIGMGKSDKPDLDYFFDDHVRYLDAFIEALGLEEVVLVIHCWGSALGFHWAKRNPERVKGIACMEFIRPIPTWDEWPEFARETFQAFRTADVGRELIIDQNAFIEGALPKCVVRPLTEVEMDHYREPFLKPVDREPLWRFPNELPIAGEPANIVALVEAYMNWLHQSPVPKLLFWGTPGVLIPPAEAARLAESLPNCKTVDIGPGLFYLQEDNPDLIGSEIARWLPAL : bound
DhaA.D106E: DhaA single mutant D106E (protein, UniProt P0A3G2 1-293, looked up, variant D106E) Haloalkane dehalogenase: MSEIGTGFPFDPHYVEVLGERMHYVDVGPRDGTPVLFLHGNPTSSYLWRNIIPHVAPSHRCIAPDLIGMGKSDKPDLDYFFDDHVRYLDAFIEALGLEEVVLVIHEWGSALGFHWAKRNPERVKGIACMEFIRPIPTWDEWPEFARETFQAFRTADVGRELIIDQNAFIEGALPKCVVRPLTEVEMDHYREPFLKPVDREPLWRFPNELPIAGEPANIVALVEAYMNWLHQSPVPKLLFWGTPGVLIPPAEAARLAESLPNCKTVDIGPGLHYLQEDNPDLIGSEIARWLPAL : bound

Return reported binding to carboxytetramethylrhodamine-C10H21NO2—Cl; argument: DhaA.H272F: DhaA mutant, catalytic triad His272 replaced with Phe (protein, UniProt P0A3G2 1-293, looked up, variant H272F) Haloalkane dehalogenase: MSEIGTGFPFDPHYVEVLGERMHYVDVGPRDGTPVLFLHGNPTSSYLWRNIIPHVAPSHRCIAPDLIGMGKSDKPDLDYFFDDHVRYLDAFIEALGLEEVVLVIHDWGSALGFHWAKRNPERVKGIACMEFIRPIPTWDEWPEFARETFQAFRTADVGRELIIDQNAFIEGALPKCVVRPLTEVEMDHYREPFLKPVDREPLWRFPNELPIAGEPANIVALVEAYMNWLHQSPVPKLLFWGTPGVLIPPAEAARLAESLPNCKTVDIGPGLFYLQEDNPDLIGSEIARWLPAL
bound

Every entry's value here was drawn from patent US20100273186A1.
